Value source: paper PMC5389473

experimental-target: murine Importin α1 with the Importin β binding domain deleted (mImpα1ΔIBB) (mouse, UniProt P52293 70-529)
assay-procedure: fluorescence polarisation; fluorescein-labelled pol β NLS peptide against the concentration of the Impα construct; apparent dissociation constants; as in ref. 56
assay-conditions: both partners purified
Ends that are not written are not given here. * marks the point of attachment. FITC = O=C1OC2(c3ccc(O)cc3Oc3cc(O)ccc32)c2ccc(NC(=S)*)cc21
test-readout: pKd
Give bare numbers, as −log10 of the molar value.

For the binder shown here, SKRKAPQETLNGGK(FITC) [fluorescein-labeled pol β NLS peptide SKRKAPQETLNGG-Lys(FITC)] , give the reported pKd.
5.70
